Biological target: NCOA4^383–522 (Homo sapiens, UniProt Q13772)
Sequence (Q13772 383-522): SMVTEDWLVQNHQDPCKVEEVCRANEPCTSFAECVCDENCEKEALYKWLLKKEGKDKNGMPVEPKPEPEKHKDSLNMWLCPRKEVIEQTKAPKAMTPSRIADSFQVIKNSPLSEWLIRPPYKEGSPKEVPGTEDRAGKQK
REPORTED_ENDPOINT: Kd (µM)
Form entry: value (µM) — number only.

Enquiry: Find the recorded Kd belonging to CN1CCN(c2ccc3nc(-c4cccc(N5CCc6cc(F)ccc6C5)c4)[nH]c3c2)CC1 and report it.
Return: 7.48

====

Tested on: HT22 cells
Test: Erastin-induced ferroptosis in HT22 cells
Format: cell-based, mouse
Conditions: 1 μM Erastin, 24 h, CCK-8
REPORTED_ENDPOINT: pEC50
Would you please state pEC50, meaning minus log10 of the concentration in mol/L, as a bare number?

Enquiry: Find the recorded pEC50 belonging to CCOC(=O)c1ccc(NC2CCCCC2)c(N)c1 [Fer-1, Ferrostatin-1, reference compound] and report it.
Return: 7.09
